System: HCC1569
Assay: H1.0 immunofluorescence intensity relative to DMSO (% of DMSO); higher = stronger H1.0 induction, active = 140 or more
Details: concentration: 10 µM; 24 h
TEST READOUT: H1.0 immunofluorescence intensity
Lab note: jot down the number only; don't add units.

Input: Kindly state the measured H1.0 immunofluorescence intensity obtained for O=C([O-])CCCc1ccccc1.[Na+] [Sodium Phenylbutyrate] with HCC1569.
Output: 97.7

Input: Kindly state the measured H1.0 immunofluorescence intensity obtained for O=C1[N-]C(=O)C(c2ccccc2)(c2ccccc2)N1.[Na+] [Phenytoin sodium] with HCC1569.
Output: 103

Input: Kindly state the measured H1.0 immunofluorescence intensity obtained for CC(C)(Oc1ccc(C2CC2(Cl)Cl)cc1)C(=O)O (centres undefined) [Ciprofibrate] with HCC1569.
Output: 98.1

Shifting focus to the compound that follows.
Input: Kindly state the measured H1.0 immunofluorescence intensity obtained for COc1ccccc1N1CCN(CCCNc2cc(=O)n(C)c(=O)n2C)CC1.Cl [Urapidil hydrochloride] with HCC1569.
Output: 103

* * *

Test system: TDF
Assay: cell number relative to DMSO (% of DMSO); higher = more cells (less growth inhibition / toxicity)
Details: concentration: 10 µM; 24 h
Listed below: cell number values for each entry.

The examples below pair each entry with its known result.
Input: Value lookup for cell number; key = CCCCCCCC/C=C\CCCCCCC(O)C(=O)O (stereo not drawn) [(9Z)-2-hydroxy-9-octadecenoic acid]
Output: 88.9

Input: Value lookup for cell number; key = Cc1cccc(-c2nn(C(=S)Nc3ccccc3)cc2-c2ccnc3ccccc23)n1
Output: 97.7

Shifting focus to the compound that follows.
Input: Value lookup for cell number; key = CCCCCC(O)CCC1C(O)CC(=O)C1CCCCCCC(=O)O (stereo not drawn) [13,14-Dihydro-prostaglandin E1]
Output: 104

* * *

Tested on: HCC1569
Test: cell number relative to DMSO (% of DMSO); higher = more cells (less growth inhibition / toxicity)
Settings: concentration: 10 µM; 24 h
Listed below: cell number values for each entry.
Lab note: jot down the number only; don't add units.

The examples below pair each entry with its known result.
Input: Value lookup for cell number; key = OCC1OC(Oc2ccc(O)cc2)C(O)C(O)C1O (stereo not given)
Output: 99.6

Input: Value lookup for cell number; key = CCCCCCC=CCCCCCCCC(=O)O [9(Z)-Hexadecenoic acid]
Output: 98.8

Input: Value lookup for cell number; key = CN(C)CCCN1c2ccccc2Sc2ccccc21.Cl [Promazine hydrochloride]
Output: 103

Input: Value lookup for cell number; key = COC(=O)C1=COC(C)C2CN3CCc4c([nH]c5ccccc45)C3CC12 (stereo not given) [Teterahydroalstonine]
Output: 102

Shifting focus to the compound that follows.
Input: Value lookup for cell number; key = CCn1c(=O)c2[nH]c(-c3ccccc3)nc2n(CC)c1=O
Output: 98.9

* * *

System: HCC1569
Test: cell number relative to DMSO (% of DMSO); higher = more cells (less growth inhibition / toxicity)
Settings: concentration: 10 µM; 24 h
Mark Satisfied for reported cell number of 100 or greater; mark Not satisfied for anything smaller.

Input: Answer whether cell number of O=C(NOCC1CC1)c1ccc(F)c(F)c1Nc1ccc(I)cc1Cl is greater than or equal to 100.
Output: Not satisfied

Input: Answer whether cell number of N#CCNC(=O)c1ccc(-c2ccnc(Nc3ccc(N4CCOCC4)cc3)n2)cc1 is greater than or equal to 100.
Output: Not satisfied

Input: Answer whether cell number of CCCCCCCCOC(=O)C=Cc1ccc(O)c(O)c1 [n-Octyl caffeate] is greater than or equal to 100.
Output: Not satisfied

From here, focus on the item given below.
Input: Answer whether cell number of COc1cc(OC)c2cc(-c3ccncc3)cnc2c1.Cl.Cl [5,7-dimethoxy-3-(4-pyridinyl)quinoline dihydrochloride] is greater than or equal to 100.
Output: Satisfied
